Reported pIC50 values follow for various compounds
Biological target: PBP5 (Bacillus subtilis, UniProt P08750)
Sequence (P08750 32-443): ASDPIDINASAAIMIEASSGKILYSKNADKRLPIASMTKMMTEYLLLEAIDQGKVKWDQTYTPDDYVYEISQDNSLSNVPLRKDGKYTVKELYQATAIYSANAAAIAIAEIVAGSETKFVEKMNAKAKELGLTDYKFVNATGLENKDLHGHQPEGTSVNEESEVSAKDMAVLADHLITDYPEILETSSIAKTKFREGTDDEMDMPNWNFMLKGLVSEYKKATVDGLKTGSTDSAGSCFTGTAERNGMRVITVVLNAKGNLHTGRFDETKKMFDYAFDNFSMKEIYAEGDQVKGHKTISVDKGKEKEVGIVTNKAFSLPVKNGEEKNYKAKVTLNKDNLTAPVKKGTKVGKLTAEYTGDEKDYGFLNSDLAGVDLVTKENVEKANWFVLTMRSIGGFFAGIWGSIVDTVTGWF
Experiment: Fluorescent whole cell β-lactam titration with Boc-FL readout, SDS-PAGE
pIC50: −log10 of the molar value.
readout_kind: pIC50

[[record]]
structure_as_smiles = "CO[C@@]1(NC(=O)Cc2cccs2)C(=O)N2C(C(=O)O)=C(COC(N)=O)CS[C@@H]21"
result_modifier = "="
endpoint_value = 6.35

[[record]]
structure_as_smiles = "C[C@@H](O)[C@H]1C(=O)N2C(C(=O)O)=C([C@H]3CCCO3)S[C@H]12"
result_modifier = "="
endpoint_value = 6.15

[[record]]
structure_as_smiles = "COc1cccc(OC)c1C(=O)N[C@@H]1C(=O)N2[C@@H]1SC(C)(C)[C@@H]2C(=O)O"
result_modifier = "="
endpoint_value = 3.41

[[record]]
structure_as_smiles = "CC(=O)OCC1=C(C(=O)O)N2C(=O)[C@@H](NC(=O)Cc3cccs3)[C@H]2SC1"
result_modifier = "="
endpoint_value = 3.56

[[record]]
structure_as_smiles = "CC1(C)S[C@@H]2[C@H](/N=C/N3CCCCCC3)C(=O)N2[C@H]1C(=O)O"
result_modifier = "<"
endpoint_value = 2.51

[[record]]
structure_as_smiles = "CC1=C(C(=O)O)N2C(=O)[C@@H](NC(=O)[C@H](N)c3ccccc3)[C@H]2SC1"
result_modifier = "<"
endpoint_value = 2.54

[[record]]
structure_as_smiles = "CO/N=C(\\C(=O)N[C@@H]1C(=O)N2C(C(=O)O)=C(COC(N)=O)CS[C@H]12)c1ccco1"
result_modifier = "<"
endpoint_value = 2.63

[[record]]
structure_as_smiles = "Cc1onc(-c2ccccc2Cl)c1C(=O)N[C@@H]1C(=O)N2[C@@H]1SC(C)(C)[C@@H]2C(=O)O"
result_modifier = "<"
endpoint_value = 2.64

